- Target Or System: T1, human BAFF (10056-HNCH, Sino biological) (human, UniProt Q9Y275 134-285)
- T1 construct: Bought protein
- Measurement Protocol: ELISA, BAFF coated, fusion protein titrated
Each entry below carries its recorded EC50.

Binder	EC50 [nM]
TACI-9-2Fc (Fc fusion, two identical polypeptides) SLSCSKEQGKFYDHLLRDCISCASICGQHPKQCAYFCENKLDKTHTCPPCPAPEAEGAPSVFLFPPKPKDTLMISRTPEVTCVVVDVSHEDPEVKFNWYVDGVEVHNAKTKPREEQYNSTYRVVSVLTVLHQDWLNGKEYKCKVSNKALPSSIEKTISKAKGQPREPQVYTLPPSRDELTKNQVSLTCLVKGFYPSDIAVEWESNGQPENNYKTTPPVLDSDGSFFLYSKLTVDKSRWQQGNVFSCSVMHEALHNHYTQKSLSLSPGK	0.279
TACI-9-1Fc (Fc fusion, two identical polypeptides) STSCRKEQGKFYDHLLRDCISCASICGQHPKQCAYFCENKLDKTHTCPPCPAPEAEGAPSVFLFPPKPKDTLMISRTPEVTCVVVDVSHEDPEVKFNWYVDGVEVHNAKTKPREEQYNSTYRVVSVLTVLHQDWLNGKEYKCKVSNKALPSSIEKTISKAKGQPREPQVYTLPPSRDELTKNQVSLTCLVKGFYPSDIAVEWESNGQPENNYKTTPPVLDSDGSFFLYSKLTVDKSRWQQGNVFSCSVMHEALHNHYTQKSLSLSPGK	0.382
TACI-9-12Fc (Fc fusion, two identical polypeptides) STSCRKEQGKFYDHLLRDCISCASICGQHPKQCAAFCENKLDKTHTCPPCPAPEAEGAPSVFLFPPKPKDTLMISRTPEVTCVVVDVSHEDPEVKFNWYVDGVEVHNAKTKPREEQYNSTYRVVSVLTVLHQDWLNGKEYKCKVSNKALPSSIEKTISKAKGQPREPQVYTLPPSRDELTKNQVSLTCLVKGFYPSDIAVEWESNGQPENNYKTTPPVLDSDGSFFLYSKLTVDKSRWQQGNVFSCSVMHEALHNHYTQKSLSLSPGK	0.122
TACI-9-6Fc (Fc fusion, two identical polypeptides) SRSCRKEQGKFYDHLLRTCISCASICGQHPKQCAYFCENKLDKTHTCPPCPAPEAEGAPSVFLFPPKPKDTLMISRTPEVTCVVVDVSHEDPEVKFNWYVDGVEVHNAKTKPREEQYNSTYRVVSVLTVLHQDWLNGKEYKCKVSNKALPSSIEKTISKAKGQPREPQVYTLPPSRDELTKNQVSLTCLVKGFYPSDIAVEWESNGQPENNYKTTPPVLDSDGSFFLYSKLTVDKSRWQQGNVFSCSVMHEALHNHYTQKSLSLSPGK	0.367
TACI-9-4Fc (Fc fusion, two identical polypeptides) SLSCRQEQGKFYDHLLRDCISCASICGQHPKQCAYFCENKLDKTHTCPPCPAPEAEGAPSVFLFPPKPKDTLMISRTPEVTCVVVDVSHEDPEVKFNWYVDGVEVHNAKTKPREEQYNSTYRVVSVLTVLHQDWLNGKEYKCKVSNKALPSSIEKTISKAKGQPREPQVYTLPPSRDELTKNQVSLTCLVKGFYPSDIAVEWESNGQPENNYKTTPPVLDSDGSFFLYSKLTVDKSRWQQGNVFSCSVMHEALHNHYTQKSLSLSPGK	0.469
